Each recorded value in this set is attributed to ChEMBL document CHEMBL5055661.

This listing pairs compounds with measured AUC(0-inf).
Test: AUC (0 to inf) in CD1 mouse at 5 mg/kg, po by LC-MS/MS analysis
Type: ADME, organism-based
Set-up: time infinity, dose 5 mg/kg, route po
Conditions: in vivo
Give the value in ng·h/mL but do not write ng·h/mL after it.

| LINE NOTATION | AUC(0-inf) [ng·h/mL] |
| --- | --- |
| COc1cc(C(N)=O)c(F)c2nc(-c3ccc(N4CCC[C@@H]4C)nc3)n(C[C@@H]3CN(C)CCO3)c12 | 1240 |

Would you kindly look at the next entry?
Respond only with AUC(0-inf) recorded for "CNC(=O)c1cc(OC)c2c(nc(-c3ccc(N4[C@@H](C)CC[C@@H]4C)nc3)n2C[C@@H]2CN(C)CCO2)c1F"
784

----------
Experiment: Half life in CD1 mouse at 0.51 mg/kg, iv by LC-MS/MS analysis
Type: ADME, organism-based
Conditions: in vivo
ENDPOINT: half-life (min)
Give the value in min but do not write min after it.

Respond only with half-life recorded for "COc1cc(C(N)=O)c(F)c2nc(-c3ccc(N4CCC[C@@H]4C)nc3)n(C[C@@H]3CN(C)CCO3)c12"
33

----------
Test: Clearance in CD1 mouse at 0.49 mg/kg, iv by LC-MS/MS analysis
Assay type: ADME, organism-based
Conditions: in vivo
ENDPOINT: clearance (mL/min/kg)
Give the value in mL/min/kg but do not write mL/min/kg after it.

Respond only with clearance recorded for "CCNC(=O)c1cc(OC)c2c(c1)nc(-c1ccc(N3[C@@H](C)CC[C@@H]3C)nc1)n2C[C@@H]1CN(C)CCO1"
25

----------
Test: Volume of distribution at steady state in Han Wistar rat at 1.9 mg/kg, iv by LC-MS/MS analysis
Assay type: ADME, organism-based
Details: in vivo, read-out: Vdss
ENDPOINT: Vd (L/kg)
Give the value in L/kg but do not write L/kg after it.

Respond only with Vd recorded for "COc1cccc2nc(-c3ccc(N4[C@@H](C)CC[C@@H]4C)nc3)n(C[C@@H]3CNCCO3)c12"
6.3

----------
Test: Volume of distribution at steady state in CD1 mouse at 0.49 mg/kg, iv by LC-MS/MS analysis
Assay type: ADME, organism-based
Details: in vivo, read-out: Vdss
ENDPOINT: Vd
Note: state the figure and append the unit.

Respond only with Vd recorded for "CCNC(=O)c1cc(OC)c2c(c1)nc(-c1ccc(N3[C@@H](C)CC[C@@H]3C)nc1)n2C[C@@H]1CN(C)CCO1"
0.73 L/kg

----------
Experiment: Volume of distribution at steady state in CD1 mouse at 0.51 mg/kg, iv by LC-MS/MS analysis
Type: ADME, organism-based
Conditions: in vivo, read-out: Vdss
ENDPOINT: Vd (L/kg)
Give the value in L/kg but do not write L/kg after it.

Respond only with Vd recorded for "COc1cc(C(N)=O)c(F)c2nc(-c3ccc(N4CCC[C@@H]4C)nc3)n(C[C@@H]3CN(C)CCO3)c12"
0.88

----------
Test: Half life in Han Wistar rat at 1 mg/kg, iv by LC-MS/MS analysis
Type: ADME, organism-based
Conditions: in vivo
ENDPOINT: half-life (min)
Give the value in min but do not write min after it.

These solved cases illustrate the format of a correct answer.
| LINE NOTATION | OBSERVED VALUE |
| --- | --- |
| CNC(=O)c1cc(OC)c2c(nc(-c3ccc(N4[C@@H](C)CC[C@@H]4C)nc3)n2C[C@@H]2CN(C)CCO2)c1F | 258 |
| COc1cc(C(N)=O)c(F)c2nc(-c3ccc(N4CCC[C@@H]4C)nc3)n(C[C@@H]3CN(C)CCO3)c12 | 384 |

Would you kindly look at the next entry?
Respond only with half-life recorded for "CCNC(=O)c1cc(OC)c2c(c1)nc(-c1ccc(N3[C@@H](C)CC[C@@H]3C)nc1)n2C[C@@H]1CN(C)CCO1"
216

----------
Assay: Clearance in CD1 mouse at 0.5 mg/kg, iv by LC-MS/MS analysis
Assay type: ADME, organism-based
Settings: in vivo
ENDPOINT: clearance (mL/min/kg)
Give the value in mL/min/kg but do not write mL/min/kg after it.

Respond only with clearance recorded for "CCNC(=O)c1cc(OC)c2c(c1)nc(-c1ccc(N3[C@@H](C)CC[C@@H]3C)nc1)n2C[C@@H]1CN(C)CCO1"
26

----------
Assay: AUC (0 to inf) in Han Wistar rat at 2 mg/kg, po by LC-MS/MS analysis
Format: ADME, organism-based
Parameters: time infinity, dose 2 mg/kg, route po
Details: in vivo
ENDPOINT: AUC(0-inf) (ng·h/mL)
Give the value in ng·h/mL but do not write ng·h/mL after it.

| LINE NOTATION | OBSERVED VALUE |
| --- | --- |
| COc1cc(C(N)=O)c(F)c2nc(-c3ccc(N4CCC[C@@H]4C)nc3)n(C[C@@H]3CN(C)CCO3)c12 | 4300 |

Respond only with AUC(0-inf) recorded for "CNC(=O)c1cc(OC)c2c(nc(-c3ccc(N4[C@@H](C)CC[C@@H]4C)nc3)n2C[C@@H]2CN(C)CCO2)c1F"
3160

----------
Experiment: Volume of distribution at steady state in Han Wistar rat at 1 mg/kg, iv by LC-MS/MS analysis
Type: ADME, organism-based
Conditions: in vivo, read-out: Vdss
ENDPOINT: Vd (L/kg)
Give the value in L/kg but do not write L/kg after it.

These solved cases illustrate the format of a correct answer.
| LINE NOTATION | Vd / L/kg |
| --- | --- |
| COc1cc(C(N)=O)c(F)c2nc(-c3ccc(N4CCC[C@@H]4C)nc3)n(C[C@@H]3CN(C)CCO3)c12 | 2.5 |
| CCNC(=O)c1cc(OC)c2c(c1)nc(-c1ccc(N3[C@@H](C)CC[C@@H]3C)nc1)n2C[C@@H]1CN(C)CCO1 | 2.6 |

Respond only with Vd recorded for "CNC(=O)c1cc(OC)c2c(nc(-c3ccc(N4[C@@H](C)CC[C@@H]4C)nc3)n2C[C@@H]2CN(C)CCO2)c1F"
2.8

----------
Assay: Plasma protein binding in Han Wistar rat at 2 mg/kg, po by LC-MS/MS analysis
Assay type: ADME, organism-based
Conditions: read-out: PPB (converted)
This listing pairs compounds with measured fraction unbound.
Lab note: record just the number, no unit beside it.

| LINE NOTATION | fraction unbound |
| --- | --- |
| CNC(=O)c1cc(OC)c2c(nc(-c3ccc(N4[C@@H](C)CC[C@@H]4C)nc3)n2C[C@@H]2CN(C)CCO2)c1F | 0.05 |

Respond only with fraction unbound recorded for "COc1cc(C(N)=O)c(F)c2nc(-c3ccc(N4CCC[C@@H]4C)nc3)n(C[C@@H]3CN(C)CCO3)c12"
0.04

----------
Experiment: Oral bioavailability in Han Wistar rat at 5.3 mg/kg by LC-MS/MS analysis
Type: ADME, organism-based
Conditions: in vivo
ENDPOINT: bioavailability (%)
Give the value in % but do not write % after it.

Respond only with bioavailability recorded for "COc1cccc2nc(-c3ccc(N4[C@@H](C)CC[C@@H]4C)nc3)n(C[C@@H]3CNCCO3)c12"
63

----------
Experiment: Plasma protein binding in Han Wistar rat at 2.1 mg/kg, po by LC-MS/MS analysis
Format: ADME, organism-based
Conditions: read-out: PPB
ENDPOINT: fraction unbound
Lab note: record just the number, no unit beside it.

Respond only with fraction unbound recorded for "CCNC(=O)c1cc(OC)c2c(c1)nc(-c1ccc(N3[C@@H](C)CC[C@@H]3C)nc1)n2C[C@@H]1CN(C)CCO1"
0.09

----------
Test: Solubility by CLND assay
Assay type: physicochemical
ENDPOINT: solubility kinetic (µM)
Give the value in µM but do not write µM after it.

| LINE NOTATION | solubility kinetic [µM] |
| --- | --- |
| Cc1cccc2nc(-c3ccc(N4[C@@H](C)CC[C@@H]4C)nc3)n(Cc3ccn(C)n3)c12 | 309 |

Would you kindly look at the next entry?
Respond only with solubility kinetic recorded for "CCOCCn1c(-c2ccc(N3[C@@H](C)CC[C@@H]3C)nc2)nc2ccccc21"
254

----------
Experiment: Half life in Han Wistar rat at 0.54 mg/kg, iv by LC-MS/MS analysis
Assay type: ADME, organism-based
Conditions: in vivo
ENDPOINT: half-life (h)
Give the value in h but do not write h after it.

Respond only with half-life recorded for "COc1cccc2nc(-c3ccc(N4[C@@H](C)CC[C@@H]4C)nc3)n(Cc3ccn(C)n3)c12"
1

----------
Test: Permeability of the compound across artificial membrane by AMP assay
Type: ADME
Details: PAMPA; read-out: permeability
Kindly return class 1 if reported Papp is no lower than 20 ×10⁻⁶ cm/s; return class 0 if it is lower.

| LINE NOTATION | LABEL CLASS |
| --- | --- |
| CNC(=O)c1cc(OC)c2c(c1)nc(-c1ccc(N3[C@@H](C)CC[C@@H]3C)nc1)n2C[C@@H]1CNCCO1 | class 0 |
| Cc1cccc2nc(-c3ccc(N4[C@@H](C)CC[C@@H]4C)nc3)n(Cc3ccn(C)n3)c12 | class 1 |
| CNC(=O)c1cc(OC)c2c(c1)nc(-c1ccc(N3[C@@H](C)CC[C@@H]3C)nc1)n2C[C@@H]1CN(C)CCO1 | class 1 |
| CCNC(=O)c1cc(OC)c2c(c1)nc(-c1ccc(N3[C@@H](C)CC[C@@H]3C)nc1)n2C[C@@H]1CNCCO1 | class 0 |

Continue with the compound presented below.
Given the entry "CCOCCn1c(-c2ccc(N3[C@@H](C)CC[C@@H]3C)nc2)nc2ccccc21" , answer whether its Papp meets or surpasses 20 ×10⁻⁶ cm/s.
class 1
